test system: HT-29; assay: NCI tumour cell line growth inhibition, 48 h
Calls of active or inactive are those of the source. Cut-off read from the data, not from the text of the source: active = GI50 up to about 1.1 µM and inactive = higher.
Quantity Kind: GI50

q: Identify measured GI50 corresponding to c1ccc(COC2(OCc3ccccc3)CC3OC2C2NN=NC32)cc1 (stereo unspecified)
a: 20.8 µM (inactive)

q: Identify measured GI50 corresponding to `CC#CC(=O)SCCNC(=O)CC`
a: > 10 µM (inactive)

q: Identify measured GI50 corresponding to `Cc1cc(N(CCC#N)S(=O)(=O)c2ccccc2)ccc1/C=C1N=C(/C=C/c2ccccc2)OC\1=O`
a: > 100 µM (inactive)

q: Identify measured GI50 corresponding to `O=c1ccn2n1CCCCC2`
a: > 100 µM (inactive)

q: Identify measured GI50 corresponding to CCOC(=O)C1CCC(=O)N1C(=O)c1ccccc1Cl (stereo unspecified)
a: > 100 µM (inactive)

q: Identify measured GI50 corresponding to COc1ccc(C2C(Cl)C(=O)N2NC(=O)c2ccccc2O)cc1 (stereo unspecified)
a: > 100 µM (inactive)

q: Identify measured GI50 corresponding to CCCCCCCCCCCCCC(=O)OCC1OC(=O)CC1O (stereo unspecified)
a: 94.4 µM (inactive)

q: Identify measured GI50 corresponding to COc1ccc(C2C(C)C(=O)C(C)C(c3ccc(OC)cc3)N2N=O)cc1 (stereo unspecified)
a: > 738 µM (inactive)

q: Identify measured GI50 corresponding to `CCOC(=O)Cc1cc(=O)[nH]c(-n2[nH]c(C)c(CCO)c2=O)n1`
a: > 100 µM (inactive)

q: Identify measured GI50 corresponding to CCOC(=O)N/N=C/C1=NN(C(=O)OCC)[S+]([O-])C1C (stereo unspecified)
a: > 100 µM (inactive)

q: Identify measured GI50 corresponding to `COc1c(C(=O)/C(=N/Nc2ccc(C(=O)O)cc2)C(C)=O)c(O)cc2occc12`
a: > 100 µM (inactive)

###

test system: COLO 205; assay: NCI tumour cell line growth inhibition, 48 h
Activity calls are given as the source filed them. Rule as the data show it: active = GI50 up to about 1.1 µM and inactive = higher.
Lab note: assign the record to one of active, inactive

q: Returns: the outcome recorded for C=C1C(=O)OC2/C=C(\CO)C3OC3C3OC3(C)CC(OC(=O)/C(=C/C)COC(C)=O)C12 (stereo not given) in this assay.
a: inactive

q: Returns: the outcome recorded for `CC(C)(NC(=O)OCc1ccccc1)C(=O)OC(=O)C(C)(C)NC(=O)OCc1ccccc1` in this assay.
a: inactive

q: Returns: the outcome recorded for O=S(=O)(c1ccccc1)n1c(C(O)c2ccccc2)cc2ccccc21 (stereo not given) in this assay.
a: inactive

q: Returns: the outcome recorded for C=CCN1CCC(c2cc(C(=O)OCC)[nH]c2-c2cc(C)no2)C1=O (stereo not given) in this assay.
a: inactive

q: Returns: the outcome recorded for `Cc1cnc(NCCCN(C)C)c2c1[nH]c1ccc3cc(O)ccc3c12` in this assay.
a: active

###

HCT-15 data, read-out GI50
// return numeric value only (unit: µM, not printed)

q: Identify measured GI50 corresponding to CC(N/N=N/c1ccc(-c2nc3ccccc3[nH]2)cc1)C(=O)O (stereo not given)
a: 9.57

q: Identify measured GI50 corresponding to `COc1cc(-c2cccs2)sc1-c1cccs1`
a: 4.4

q: Identify measured GI50 corresponding to O=C1CSC(c2c(O)ccc3ccccc23)N1n1c(S)nnc(/C=C/c2c(O)ccc3ccccc23)c1=O (stereo not given)
a: 0.327

q: Identify measured GI50 corresponding to `Nc1c(O)c(C(=O)O)cc2ccccc12`
a: 36.6

q: Identify measured GI50 corresponding to `COC(=O)c1c(O)ccc2c1c1c(n2Cc2cccc(C)c2)C(=O)c2ccccc2C1`
a: 19.7

q: Identify measured GI50 corresponding to `C/C(=N\NC(=O)C[n+]1ccccc1)c1sc(-c2nc(C)c(/C(C)=N/NC(=O)C[n+]3ccccc3)s2)nc1C`
a: 37.7

q: Identify measured GI50 corresponding to `CC(=O)OCc1cc(OC(C)=O)c2cc3c(OC(C)=O)cccc3c(OC(C)=O)c2c1`
a: 5.61

q: Identify measured GI50 corresponding to `O=C1NCN(c2ccccc2)C12CCN(CCCSc1ccc(F)cc1)CC2`
a: 31.1

q: Identify measured GI50 corresponding to `Cc1ccc(C(=O)/C=C(O)/C(O)=C/C(=O)c2ccc(C)cc2C)c(C)c1`
a: 2

q: Identify measured GI50 corresponding to `CC1(C)CC(=O)C(=CNc2nc(-c3cccc([N+](=O)[O-])c3)cs2)C(=O)C1`
a: 11.6

q: Identify measured GI50 corresponding to Cc1cc(N)c2ccccc2[n+]1CCCCCCCCCC[n+]1c(C)cc(N)c2ccccc21 [DEQUALINIUM CHLORIDE]
a: 4.31

###

system: ACHN; assay: NCI tumour cell line growth inhibition, 48 h
Active and inactive are the calls of the source. Cut-off read from the data, not from the text of the source: active = GI50 up to about 1.1 µM and inactive = higher.
Lab note: assign the record to one of TRUE = active, FALSE = inactive

q: Returns: the outcome recorded for CCOC(=O)/C=C(/C(=O)OCC)n1c(=O)c(C)cn(C2CC(N=[N+]=[N-])C(CO)O2)c1=O (configuration not stated) in this assay.
a: FALSE

q: Returns: the outcome recorded for CC1(CO)OC1COCc1ccccc1 (configuration not stated) in this assay.
a: FALSE

q: Returns: the outcome recorded for `Cc1c(C(=O)CSc2nc3ccccc3[nH]2)c(=O)n(-c2ccccc2)n1C` in this assay.
a: FALSE

q: Returns: the outcome recorded for `NCCNCC1CCNCC1` in this assay.
a: FALSE

q: Returns: the outcome recorded for OC1(c2ccccc2)C2CCN(CC2)C1CN1CCOCC1 (configuration not stated) in this assay.
a: FALSE

q: Returns: the outcome recorded for `C=CCn1c(N)c(C#N)c(C#N)c1-c1ccccc1` in this assay.
a: FALSE

q: Returns: the outcome recorded for `CN(c1ccc(Cl)cc1)S(=O)(=O)c1cccc([N+](=O)[O-])c1` in this assay.
a: FALSE

q: Returns: the outcome recorded for `Cc1c(N=C(S)Nc2ccc(Cl)cc2)c(=O)n(-c2ccccc2)n1C` in this assay.
a: FALSE

q: Returns: the outcome recorded for COC(=O)[C@H](CC(C)C)NC(=O)[C@H](Cc1ccccc1)N1CC2C=CC1C2 (some centres not stated) in this assay.
a: FALSE

q: Returns: the outcome recorded for `CCOC(=O)c1cnn2c1ncc1c(=O)n(NC(N)=O)ccc12` in this assay.
a: FALSE

q: Returns: the outcome recorded for CCOC(=O)C1=C(C)C2C=C(c3cccs3)CC(c3ccc(Cl)cc3)=C2OC1=O (configuration not stated) in this assay.
a: FALSE

q: Returns: the outcome recorded for `Clc1nc(Cl)nc(Nc2cccc3ccccc23)n1` in this assay.
a: FALSE

q: Returns: the outcome recorded for `CCCCN(CCCC)/C(=N\C#N)NCc1ccccc1` in this assay.
a: FALSE

q: Returns: the outcome recorded for `CC(C)c1ccc(/C(C(=O)O)=C(\O)C(=O)O)cc1` in this assay.
a: FALSE

q: Returns: the outcome recorded for `O=C(N/N=C/c1ccc2c(c1)CCC2)c1ccccc1O` in this assay.
a: FALSE

q: Returns: the outcome recorded for CCCCC(C(=O)CCC(=O)Nc1ccc(Cl)c(Cl)c1)C(=O)C(C)C (configuration not stated) in this assay.
a: FALSE

q: Returns: the outcome recorded for `C=C1c2ccccc2C(=O)c2c1c1c(C(=O)OC)c(O)ccc1n2Cc1ccccc1` in this assay.
a: TRUE

q: Returns: the outcome recorded for COc1ccc(C2Oc3c(cc(O)c(OC)c3C)[C@@H]2C)cc1OC (some centres not stated) in this assay.
a: FALSE

q: Returns: the outcome recorded for `COC(=O)Nc1nc2cc(Br)ccc2[nH]1` in this assay.
a: FALSE

q: Returns: the outcome recorded for `O=[N+]([O-])c1ccc(S(=O)(=O)n2c3ccc(Br)cc3c3nc4ccccc4nc32)cc1` in this assay.
a: FALSE

q: Returns: the outcome recorded for `C=C1C(=O)O[C@@H]2C[C@@H](C)[C@@H]3C=CC(=O)[C@@]3(C)[C@@H](O)[C@H]12` in this assay.
a: FALSE

q: Returns: the outcome recorded for `CNc1ccc(Cl)cc1S(=O)(=O)c1ccccc1[N+](=O)[O-]` in this assay.
a: FALSE

###

system: KM12; test: NCI tumour cell line growth inhibition, 48 h
Activity calls are given as the source filed them. No stated cut-off is given here; in the data, active = GI50 up to about 1.1 µM and inactive = higher.
For each of the compounds below, state its GI50.

q: Identify measured GI50 corresponding to `O=C1NCN(c2ccccc2)C12CCN(CCCSc1ccc(F)cc1)CC2`
a: 30.2 µM (inactive)

q: Identify measured GI50 corresponding to `COC(=O)C1=C(C(=O)OC)SC2(S1)C(C(=O)OC)=C(C(=O)OC)Sc1c2ssc1=O`
a: 4.78 µM (inactive)

q: Identify measured GI50 corresponding to COC(=O)[C@H](CC(C)C)NC(=O)[C@H](Cc1ccccc1)N1CC2C=CC1C2 (stereo partly drawn)
a: > 100 µM (inactive)

q: Identify measured GI50 corresponding to Cc1ccc(NC(=O)CC(=O)N2N=C(c3ccccc3)C(/N=N/c3ccc(S(=O)(=O)CCOS(=O)(=O)O)cc3)C2=O)cc1 (stereo not drawn)
a: 86.3 µM (inactive)

q: Identify measured GI50 corresponding to Cc1ccc([N+](=O)[O-])cc1NC(=O)/C(=N/NC(=S)NN)C1SC(=S)NC1=O (stereo not drawn)
a: > 100 µM (inactive)

q: Identify measured GI50 corresponding to `CN(Nc1cc(=O)[nH]c(=O)[nH]1)c1ccccc1`
a: > 100 µM (inactive)

q: Identify measured GI50 corresponding to `CCOC(=O)c1c[nH]cc1-c1cn(S(=O)(=O)c2ccccc2)cc1C`
a: 19.6 µM (inactive)

q: Identify measured GI50 corresponding to `CC(C)CCC(=O)c1ccoc1`
a: > 100 µM (inactive)
